targetOfAssay: Serine/threonine-protein kinase mTOR (Homo sapiens, UniProt P42345)
experimentNotes: Inhibition of mTOR (unknown origin) at 100 nM by kinase profiling assay relative to control
endpoint: inhibition (%)
Give bare numbers, in %.

Some entries whose results are on file:
>>> df
                                querysmiles  quantitativereadout
0  CC(C)c1cc(C(=O)N2CCc3c(sc4nc(NCCN5CCOCC5)nc(N5CCOCC5)c34)C2)c(O)cc1O                 68.2
1  CC(C)c1cc(C(=O)N2CCc3c(sc4nc(N5CCOCC5)nc(N5CCOC(F)(F)C5)c34)C2)c(O)cc1O                 44.1
2  CC(C)c1cc(C(=O)N2CCc3c(sc4nc(-c5ccc(NC(=O)Nc6cccc(Cl)c6)cc5)nc(N5CCOCC5)c34)C2)c(O)cc1O                 75.2

Measured inhibition, CC(C)c1cc(C(=O)N2CCc3c(sc4nc(NC5CCOCC5)nc(N5CCOCC5)c34)C2)c(O)cc1O : 57.5

* * *

targetOfAssay: Heat shock protein HSP90 (Homo sapiens, UniProt P07900+P08238)
experimentNotes: Inhibition of Hsp90 (unknown origin) by TR-FRET assay
Type: protein assay
Rule: IC50 below 400 nM gives yes. Equal to or above 400 nM gives no.

Sample answers from the record:
>>> df
                                querysmiles  label
0  CC(C)c1cc(C(=O)N2CCc3c(sc4nc(N5CCOC[C@@H]5C)nc(N5CCOC[C@@H]5C)c34)C2)c(O)cc1O     no
1  CC(C)c1cc(C(=O)N2CCc3c(sc4nc(-c5ccc(NC(=O)Nc6ccc(F)c(Cl)c6)cc5)nc(N5CCOCC5)c34)C2)c(O)cc1O    yes
2  CC(C)c1cc(C(=O)N2CCc3c(sc4nc(-c5ccc(NC(=O)Nc6cccc(Cl)c6)cc5)nc(N5CCOCC5)c34)C2)c(O)cc1O    yes

[in] Lab note: IC50 threshold 400 nM. Does this compound come in strictly under it? CC(C)c1cc(C(=O)N2CCc3c(sc4nc(-c5ccc(NC(=O)Nc6cccc(C(F)(F)F)c6)cc5)nc(N5CCOCC5)c34)C2)c(O)cc1O
[out] yes

[in] Hello, is IC50 of the following compound strictly smaller than 400 nM? CC(C)c1cc(C(=O)N2CCc3c(sc4nc(-c5ccc(NC(=O)Nc6cc(Cl)cc(Cl)c6)cc5)nc(N5CCOCC5)c34)C2)c(O)cc1O
[out] yes

* * *

Provide the recorded inhibition for the entries that follow.
targetOfAssay: Serine/threonine-protein kinase mTOR (Homo sapiens, UniProt P42345)
experimentNotes: Inhibition of mTOR (unknown origin) at 100 nM by kinase profiling assay relative to control
Answers are plain numbers, in %.

>>> print(df.to_string())
                                querysmiles  quantitativereadout
0  CCNC(=O)N(C(=O)NCC)c1ccc(-c2nc(N3CCOCC3)c3c4c(sc3n2)CN(C(=O)c2cc(C(C)C)c(O)cc2O)CC4)cc1                 53.5
1  CC(C)c1cc(C(=O)N2CCc3c(sc4nc(N5CCOCC5)nc(N5CCCCC5)c34)C2)c(O)cc1O                 56.6
2  CCNC(=O)Nc1ccc(-c2nc(N3CCOCC3)c3c4c(sc3n2)CN(C(=O)c2cc(C(C)C)c(O)cc2O)CC4)cc1                 68.6

Turning now to a further compound:
Given the compound Cc1cccc(NC(=O)Nc2ccc(-c3nc(N4CCOCC4)c4c5c(sc4n3)CN(C(=O)c3cc(C(C)C)c(O)cc3O)CC5)cc2)c1 and test system Serine/threonine-protein kinase mTOR (Homo sapiens, UniProt P42345), the measured inhibition is 74.7
